Listed below: % Signal Inhibition Average values for each entry.
Molecular target: T1, canine OX40L, full length membrane form, expressed on HEK293 cells (canine)
T1 chain: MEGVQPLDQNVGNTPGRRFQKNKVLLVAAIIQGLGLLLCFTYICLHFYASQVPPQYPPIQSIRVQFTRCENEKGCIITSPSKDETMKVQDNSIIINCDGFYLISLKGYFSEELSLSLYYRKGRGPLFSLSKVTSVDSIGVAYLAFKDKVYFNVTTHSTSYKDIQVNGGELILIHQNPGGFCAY
Assay: cell-based or functional assay
assayEndpoint: % Signal Inhibition Average

PMX107 (antibody, V domains shown) VH: AVQLVESGGDLVRPGGSLRLSCVASGFTFSSYHMNWVRQAPGKGLQWVAFINSGGSSTTYADVVRGRFTISRDYAKNTLFLQMNSLRAEDTAVYYCAIVSIWTHFDYWGQGTLVTVSS VL: SFVLTQLPSVSVTLRQTARITCGGDIIGSKNVYWYQQRLGQAPVLILYRDTNRPTGIPERFSGASSGNTATLTISGALAEDEADYYCQVWDNSNKAMFGGGTHLTVL ... -5.31%
PMX292 (antibody, V domains shown) VH: AVQLVESGGDLVRPGGSLRLSCVASGFTFSNFDMYWVRQAPGRGLQWVATISYDGFNTYSTDTVRGRFTISRDNARNTVYLQMNSLRVEDTAVFYCTARRFGLGYWGQGTLVTVSS VL: DIFMAQTPPSLSVSPRETASISCKASQSLLHSDGNTYLDWYLQKPGQSPQLLIYLVSNRFPGVSDRFSGSGSGTGFTLRISRVEASDTGVYYCGQGTQLPYTFSQGTKLEIK ... 71.6%
